Measured pIC50, listed per entry.
- testedSystem: CRBN/DDB1 (Homo sapiens)
- Sequence (Q96SW2 whole entry): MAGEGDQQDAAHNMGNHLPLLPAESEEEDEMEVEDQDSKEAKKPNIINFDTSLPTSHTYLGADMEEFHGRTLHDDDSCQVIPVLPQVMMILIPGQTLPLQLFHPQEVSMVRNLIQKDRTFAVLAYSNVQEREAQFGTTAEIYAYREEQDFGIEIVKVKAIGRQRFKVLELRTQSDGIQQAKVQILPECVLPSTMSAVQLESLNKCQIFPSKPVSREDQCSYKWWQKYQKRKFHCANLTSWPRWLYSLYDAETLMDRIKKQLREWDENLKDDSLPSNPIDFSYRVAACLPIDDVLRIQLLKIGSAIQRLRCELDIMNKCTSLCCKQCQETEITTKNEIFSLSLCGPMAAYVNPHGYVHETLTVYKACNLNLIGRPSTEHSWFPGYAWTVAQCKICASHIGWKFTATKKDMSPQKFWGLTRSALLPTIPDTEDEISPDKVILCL
- Sequence (Q16531 whole entry partner): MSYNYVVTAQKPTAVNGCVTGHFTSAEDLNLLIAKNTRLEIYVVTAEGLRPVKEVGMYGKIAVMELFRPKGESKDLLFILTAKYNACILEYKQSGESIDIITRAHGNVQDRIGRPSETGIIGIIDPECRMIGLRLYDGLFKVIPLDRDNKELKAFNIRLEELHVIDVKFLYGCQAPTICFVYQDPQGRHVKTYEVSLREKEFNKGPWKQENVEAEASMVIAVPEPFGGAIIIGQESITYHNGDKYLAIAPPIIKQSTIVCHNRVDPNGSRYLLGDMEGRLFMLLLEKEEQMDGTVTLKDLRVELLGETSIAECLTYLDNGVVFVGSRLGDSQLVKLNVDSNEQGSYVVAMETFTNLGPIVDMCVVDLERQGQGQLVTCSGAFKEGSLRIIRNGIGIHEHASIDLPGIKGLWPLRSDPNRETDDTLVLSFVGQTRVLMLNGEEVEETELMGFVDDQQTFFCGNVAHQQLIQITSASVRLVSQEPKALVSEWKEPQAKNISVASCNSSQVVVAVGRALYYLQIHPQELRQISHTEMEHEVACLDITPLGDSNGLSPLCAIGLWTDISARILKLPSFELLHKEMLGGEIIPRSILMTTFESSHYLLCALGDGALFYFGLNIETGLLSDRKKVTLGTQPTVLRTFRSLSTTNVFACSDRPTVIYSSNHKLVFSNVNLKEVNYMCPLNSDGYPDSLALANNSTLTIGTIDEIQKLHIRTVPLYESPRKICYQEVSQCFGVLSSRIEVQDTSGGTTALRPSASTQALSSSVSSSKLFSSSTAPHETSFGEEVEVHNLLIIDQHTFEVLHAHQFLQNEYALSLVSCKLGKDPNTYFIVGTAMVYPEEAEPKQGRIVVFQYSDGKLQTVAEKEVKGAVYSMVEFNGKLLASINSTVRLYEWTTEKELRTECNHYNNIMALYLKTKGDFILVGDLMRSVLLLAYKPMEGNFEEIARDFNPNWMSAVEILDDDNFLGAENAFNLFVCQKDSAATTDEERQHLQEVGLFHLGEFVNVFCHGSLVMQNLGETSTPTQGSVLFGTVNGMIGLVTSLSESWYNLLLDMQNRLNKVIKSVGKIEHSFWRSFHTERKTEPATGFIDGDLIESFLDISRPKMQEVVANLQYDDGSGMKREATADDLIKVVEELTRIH
- assayConditions: HTRF, Cy5-labeled Thalidomide probe
pIC50: −log10 of the molar value.

C[C@H]1Cc2c(ccc3[nH]ncc23)[C@H](c2ccc(N3CCC4(CC3)CC(CN3CCN5c6cc7c(cc6OC[C@@H]5C3)C(=O)N([C@@H]3CCC(=O)NC3=O)C7)C4)cn2)N1CC1(F)CC1 (stereo in doubt)
> 7.30
C[C@H]1Cc2c(ccc3[nH]ncc23)[C@@H](c2ccc(N3CCC(CN4CCN5c6cc7c(cc6OC[C@H]5C4)C(=O)N([C@@H]4CCC(=O)NC4=O)C7)CC3)nc2)N1CC(F)(F)F (stereo in doubt)
> 7.30

Query molecule follows.
Value of pIC50 reported for the molecule C[C@@H]1Cc2c(ccc3[nH]ncc23)[C@@H](c2c(F)cc(N3CCC4(CCN(C(=O)CN5Cc6cc(F)c(C(=O)N[C@H]7CCC(=O)NC7=O)cc6C5)CC4)CC3)cc2F)N1CC(F)F is < 5.30
